- METHOD_DESCRIPTION: Solubility in water and organic solvents
- TEST_CONDITIONS: water
ATTRIBUTE_MEASURED: solubility (mg/mL)
Give the quantity in mg/mL, number only.

Input line: What value of solubility has been recorded for this entry: `O=C(O)c1cc2ccccc2s1`
Output line: 700

Source: patent US5344941A
